species on record: Rattus norvegicus; experiment: Open TG-GATES - Regimen: Daily Repeat; type: toxicity, organism-based, Sprague-Dawley; parameters: regimen Daily Repeat, gender Male, age 6 weeks; conditions: in vivo, po, 0 mg/kg, […], tissue Blood, route gavage, dose level Control, time 28 day

{"columns": ["Molecule", "Unit Abbreviation", "Plat"],
 "data": [
  ["NC(=O)N1c2ccccc2C=Cc2ccccc21 [CARBAMAZEPINE]", "x10_4/uL", 111.8],
  ["CCCC(CCC)C(=O)O", "x10_4/uL", 108.4],
  ["CSc1ccc2c(c1)N(CCC1CCCCN1C)c1ccccc1S2 (stereo not given)", "x10_4/uL", 98],
  ["Cn1c(=O)c2[nH]cnc2n(C)c1=O.O", "x10_4/uL", 98.8],
  ["Clc1ccccc1CN1CCc2sccc2C1", "x10_4/uL", 106.8]
]}

* * *

species on record: Rattus norvegicus; assay: Open TG-GATES - Regimen: Daily Repeat; format: toxicity, organism-based, Sprague-Dawley; design: regimen Daily Repeat, gender Male, age 6 weeks; details: in vivo, po, 0 mg/kg, 72 h, tissue Blood, route gavage, dose level Control, time 3 day
Readings of APTT for the listed compounds

{"columns": ["Compound", "APTT (s)"],
 "data": [
  ["CSc1ccc2c(c1)N(CCC1CCCCN1C)c1ccccc1S2 (stereo not given) [THIORIDAZINE]", 16.6],
  ["CCCC(CCC)C(=O)O [VALPROIC ACID]", 18.8],
  ["COc1ccc(Cc2nccc3cc(OC)c(OC)cc23)cc1OC [PAPAVERINE]", 21.1],
  ["NC(=O)N1c2ccccc2C=Cc2ccccc21 [CARBAMAZEPINE]", 19.1],
  ["CC(=O)Oc1ccccc1C(=O)O [ASPIRIN]", 19.3],
  ["CCc1cc(C(N)=S)ccn1 [ETHIONAMIDE]", 17.3],
  ["C[C@H](CS)C(=O)N1CCC[C@H]1C(=O)O [CAPTOPRIL]", 16.1],
  ["COc1ccc2c(c1)c(CC(=O)O)c(C)n2C(=O)c1ccc(Cl)cc1 [INDOMETHACIN]", 17],
  ["CN(C)CCC=C1c2ccccc2CCc2ccccc21 [AMITRIPTYLINE]", 14.9],
  ["O=C(O)c1cc(/N=N/c2ccc(S(=O)(=O)Nc3ccccn3)cc2)ccc1O [SULFASALAZINE]", 18.3]
]}

* * *

species: Rattus norvegicus; experiment: Open TG-GATES - Regimen: Single; format: toxicity, organism-based, Sprague-Dawley; parameters: regimen Single, gender Male, age 6 weeks; conditions: in vivo, po, 0 mg/kg, 24 h, tissue Plasma, route gavage, dose level Control
Readings of TG for the listed compounds

{"columns": ["Compound", "TG / mg/dL"],
 "data": [
  ["CSc1ccc2c(c1)N(CCC1CCCCN1C)c1ccccc1S2 (stereo not drawn) [THIORIDAZINE]", 87.8],
  ["NC(=O)N/N=C/c1ccc([N+](=O)[O-])o1 [NITROFURAZONE]", 72.4],
  ["O=C(O)c1cn(C2CC2)c2cc(N3CCNCC3)c(F)cc2c1=O [CIPROFLOXACIN]", 89.4]
]}

* * *

species: Rattus norvegicus; test: Open TG-GATES - Regimen: Single; format: toxicity, organism-based, Sprague-Dawley; parameters: regimen Single, gender Male, age 6 weeks; settings: in vivo, po, 0 mg/kg, 9 h, route gavage, dose level Control
Measured Attribute: TERMINAL_BW (g)

{"columns": ["Compound", "Quantitative Readout"],
 "data": [
  ["Cn1c(=O)c2[nH]cnc2n(C)c1=O.O", 212.6],
  ["CC(=O)Oc1ccccc1C(=O)O", 214.9],
  ["Clc1ccccc1CN1CCc2sccc2C1", 205.8],
  ["NC(=O)N1c2ccccc2C=Cc2ccccc21 [CARBAMAZEPINE]", 211.7]
]}

* * *

organism: Rattus norvegicus; assay: Open TG-GATES - Regimen: Daily Repeat; format: toxicity, organism-based, Sprague-Dawley; parameters: regimen Daily Repeat, gender Male, age 6 weeks; conditions: in vivo, po, 0 mg/kg, 72 h, tissue Blood, route gavage, dose level Control, time 3 day
Measured Attribute: MCV (fL)

{"columns": ["Compound", "Quantitative Readout"],
 "data": [
  ["CCCC(CCC)C(=O)O", 62.3],
  ["NC(=O)N1c2ccccc2C=Cc2ccccc21 [CARBAMAZEPINE]", 61.9],
  ["COc1ccc(Cc2nccc3cc(OC)c(OC)cc23)cc1OC", 63]
]}

* * *

organism: Rattus norvegicus; assay: Open TG-GATES - Regimen: Daily Repeat; format: toxicity, organism-based, Sprague-Dawley; set-up: regimen Daily Repeat, gender Male, age 6 weeks; details: in vivo, po, 0 mg/kg, […], tissue Plasma, route gavage, dose level Control, time 14 day
Readings of TP for the listed molecules

{"columns": ["Molecule", "Unit Abbreviation", "TP"],
 "data": [
  ["O=C(O)c1cc(/N=N/c2ccc(S(=O)(=O)Nc3ccccn3)cc2)ccc1O", "g/dL", 6],
  ["Cn1c(=O)c2[nH]cnc2n(C)c1=O.O", "g/dL", 5.9],
  ["CN(C)CCC=C1c2ccccc2CCc2ccccc21", "g/dL", 6.1],
  ["CCCC(CCC)C(=O)O", "g/dL", 5.9],
  ["NC(=O)N1c2ccccc2C=Cc2ccccc21 [CARBAMAZEPINE]", "g/dL", 5.9],
  ["C[C@H](CS)C(=O)N1CCC[C@H]1C(=O)O", "g/dL", 6]
]}

* * *

species on record: Rattus norvegicus; experiment: Open TG-GATES - Regimen: Single; assay type: toxicity, organism-based, Sprague-Dawley; set-up: regimen Single, gender Male, age 6 weeks; details: in vivo, po, 0 mg/kg, 24 h, tissue Plasma, route gavage, dose level Control
Readings of K for the listed compounds

{"columns": ["Compound", "K [meq/L]"],
 "data": [
  ["O=C(O)c1cc(/N=N/c2ccc(S(=O)(=O)Nc3ccccn3)cc2)ccc1O [SULFASALAZINE]", 4.1],
  ["CC(=O)Oc1ccccc1C(=O)O [ASPIRIN]", 3.9],
  ["NC(=O)N1c2ccccc2C=Cc2ccccc21 [CARBAMAZEPINE]", 4]
]}

* * *

organism: Rattus norvegicus; experiment: Open TG-GATES - Regimen: Daily Repeat; format: toxicity, organism-based, Sprague-Dawley; set-up: regimen Daily Repeat, gender Male, age 6 weeks; conditions: in vivo, po, 0 mg/kg, […], tissue Blood, route gavage, dose level Control, time 7 day
Readings of Neu for the listed compounds
Measured Attribute: Neu (%)

{"columns": ["Compound", "Measured Attribute", "Unit Abbreviation", "Quantitative Readout"],
 "data": [
  ["COc1ccc(Cc2nccc3cc(OC)c(OC)cc23)cc1OC", "Neu", "%", 14.8],
  ["O=C(O)c1cn(C2CC2)c2cc(N3CCNCC3)c(F)cc2c1=O", "Neu", "%", 10],
  ["CSc1ccc2c(c1)N(CCC1CCCCN1C)c1ccccc1S2 (stereo not drawn)", "Neu", "%", 10.2]
]}

* * *

species on record: Rattus norvegicus; test: Open TG-GATES - Regimen: Single; type: toxicity, organism-based, Sprague-Dawley; design: regimen Single, gender Male, age 6 weeks; settings: in vivo, po, 0 mg/kg, 3 h, tissue Plasma, route gavage, dose level Control
Mark each entry Yes if its ALT sits below 40 IU/L, and No for all others.

{"columns": ["Molecule Smiles", "Label Class"],
 "data": [
  ["COc1ccc(Cc2nccc3cc(OC)c(OC)cc23)cc1OC", "No"],
  ["C[C@H](CS)C(=O)N1CCC[C@H]1C(=O)O", "Yes"],
  ["O=C(O)c1cn(C2CC2)c2cc(N3CCNCC3)c(F)cc2c1=O", "Yes"],
  ["O=C(O)c1cc(/N=N/c2ccc(S(=O)(=O)Nc3ccccn3)cc2)ccc1O", "Yes"],
  ["NC(=O)N/N=C/c1ccc([N+](=O)[O-])o1", "No"]
]}

* * *

species on record: Rattus norvegicus; test: Open TG-GATES - Regimen: Daily Repeat; assay type: toxicity, organism-based, Sprague-Dawley; set-up: regimen Daily Repeat, gender Male, age 6 weeks; conditions: in vivo, po, 0 mg/kg, […], tissue Plasma, route gavage, dose level Control, time 14 day
Measured Attribute: IP

{"columns": ["Compound", "Measured Attribute", "Result"],
 "data": [
  ["CC(=O)Oc1ccccc1C(=O)O", "IP", "7.2 mg/dL"],
  ["NC(=O)N1c2ccccc2C=Cc2ccccc21 [CARBAMAZEPINE]", "IP", "7 mg/dL"],
  ["CCCC(CCC)C(=O)O", "IP", "7.1 mg/dL"]
]}

* * *

species on record: Rattus norvegicus; test: Open TG-GATES - Regimen: Single; type: toxicity, organism-based, Sprague-Dawley; design: regimen Single, gender Male, age 6 weeks; conditions: in vivo, po, 0 mg/kg, 3 h, tissue Plasma, route gavage, dose level Control
Measured Attribute: AST (IU/L)

{"columns": ["Molecule", "Quantitative Readout"],
 "data": [
  ["CSc1ccc2c(c1)N(CCC1CCCCN1C)c1ccccc1S2 (stereo not drawn)", 71],
  ["Cn1c(=O)c2[nH]cnc2n(C)c1=O.O", 70],
  ["O=C(O)c1cn(C2CC2)c2cc(N3CCNCC3)c(F)cc2c1=O", 70.6]
]}

Entry source: ChEMBL document CHEMBL3885861
